target: Acetylcholinesterase (Homo sapiens, UniProt P22303)
Sequence (P22303 whole entry): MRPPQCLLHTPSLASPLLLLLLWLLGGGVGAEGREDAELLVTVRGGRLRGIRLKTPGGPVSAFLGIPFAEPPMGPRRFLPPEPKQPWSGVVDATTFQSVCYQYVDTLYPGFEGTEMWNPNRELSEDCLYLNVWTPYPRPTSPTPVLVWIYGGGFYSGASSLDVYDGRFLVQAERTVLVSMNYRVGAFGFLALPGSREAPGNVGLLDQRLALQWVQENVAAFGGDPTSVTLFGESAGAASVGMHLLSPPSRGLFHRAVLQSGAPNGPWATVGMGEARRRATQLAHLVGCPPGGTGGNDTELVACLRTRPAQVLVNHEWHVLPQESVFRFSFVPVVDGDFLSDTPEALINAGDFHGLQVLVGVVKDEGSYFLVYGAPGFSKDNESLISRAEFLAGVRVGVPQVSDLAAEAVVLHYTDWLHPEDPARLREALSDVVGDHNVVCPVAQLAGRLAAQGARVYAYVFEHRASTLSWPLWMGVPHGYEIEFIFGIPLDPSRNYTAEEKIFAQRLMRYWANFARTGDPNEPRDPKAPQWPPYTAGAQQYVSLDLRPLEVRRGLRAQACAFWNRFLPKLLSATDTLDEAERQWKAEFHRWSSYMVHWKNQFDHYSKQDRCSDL
QUANTITY_MEASURED: IC50 (µM)
Output spec: scalar in µM, unitless text.

Any idea what its IC50 is? The molecule is `COc1cc(-c2cccc3c2N(C)CC3)c(CN2CC[C@@]34C=C[C@H](O)C[C@@H]3Oc3c(OC)ccc(c34)C2)c(OC)c1OC`
18.7

====

Catalogue of selectivity ratio readings, one per entry.
assay: Selectivity index, ratio of cytotoxic effect against human MRC5 cells to cytotoxic effect against human MCF7 cells; assay type: toxicity, cell-based; details: MRC5 cells versus MCF7 cells, read-out: Selectivity Index

Worked set:
• O[C@H]1[C@H]2c3cc4c(cc3CN3CCC(=C[C@@H]1O)[C@H]23)OCO4 = 0.62
• CO[C@@H]1C=C[C@@]23c4cc5c(cc4CN(C[C@@H]2O)[C@H]3C1)OCO5 [(+)-HAEMANTHAMINE] = 0.05

Using the record for `CO[C@@H]1C=C[C@@]23c4cc5c(cc4[C@H](O)N(C[C@@H]2O)[C@H]3C1)OCO5` , report its selectivity ratio.
0.14

====

Form field: selectivity ratio (one value per entry).
test: Selectivity index, ratio of cytotoxic effect against human MRC5 cells to cytotoxic effect against human A2780 cells; type: toxicity, cell-based; conditions: MRC5 cells versus A2780 cells, read-out: Selectivity Index

Below, 2 compounds whose answers are already recorded.
* O[C@H]1[C@H]2c3cc4c(cc3CN3CCC(=C[C@@H]1O)[C@H]23)OCO4 | 0.62
* CO[C@@H]1C=C[C@@]23c4cc5c(cc4CN(C[C@@H]2O)[C@H]3C1)OCO5 [(+)-HAEMANTHAMINE] | 0.05

Attention now turns to another entry.
Which value of selectivity ratio has been reported for `CO[C@@H]1C=C[C@@]23c4cc5c(cc4[C@H](O)N(C[C@@H]2O)[C@H]3C1)OCO5` in the records?
0.14

====

test: Selectivity index, ratio of cytotoxic effect against human MRC5 cells to cytotoxic effect against human Jurkat cells; format: toxicity, cell-based; conditions: MRC5 cells versus Jurkat cells, read-out: Selectivity Index
Readings of selectivity ratio for the listed compounds
Respond with the number and no other words.

* O[C@H]1[C@H]2c3cc4c(cc3CN3CCC(=C[C@@H]1O)[C@H]23)OCO4 | 0.62
* CO[C@@H]1C=C[C@@]23c4cc5c(cc4CN(C[C@@H]2O)[C@H]3C1)OCO5 [(+)-HAEMANTHAMINE] | 0.05

Attention now turns to another entry.
Could you share which selectivity ratio value was measured for `CO[C@@H]1C=C[C@@]23c4cc5c(cc4[C@H](O)N(C[C@@H]2O)[C@H]3C1)OCO5` ?
0.14

====

assay: Selectivity index, ratio of cytotoxic effect against human MRC5 cells to cytotoxic effect against human A549 cells; type: toxicity, cell-based; details: MRC5 cells versus A549 cells, read-out: Selectivity Index
Each entry below carries its recorded selectivity ratio.
Give the value as a plain number.

// worked examples, selectivity ratio included
- CO[C@@H]1C=C[C@@]23c4cc5c(cc4CN(C[C@@H]2O)[C@H]3C1)OCO5 [(+)-HAEMANTHAMINE]: 0.05
- CO[C@@H]1C=C[C@@]23c4cc5c(cc4[C@H](O)N(C[C@@H]2O)[C@H]3C1)OCO5: 0.14

What does the data say about its selectivity ratio? Entry: `O[C@H]1[C@H]2c3cc4c(cc3CN3CCC(=C[C@@H]1O)[C@H]23)OCO4`
0.62
